All values here come from paper PMC9482650.

Biological target: IL16_4, Q14005
Sequence (Q14005 1229-1329): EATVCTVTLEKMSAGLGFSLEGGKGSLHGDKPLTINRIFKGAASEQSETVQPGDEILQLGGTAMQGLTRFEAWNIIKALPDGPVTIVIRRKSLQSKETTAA
Test: holdup assay
Set-up: key: below the threshold = too weak to quantify, mostly under pKd 3.1 to 4
Details: plain residues with an end cap or a label only (N-terminal biotin on a linker: ttds)
Recorded metric: pKd

Solved cases below.
Binder: PFRSRSPSEV [GPR6, P46095]
Recorded metric: pKd
Result: below the threshold
//
Binder: KQVVPFSSSV [GDA, Q9Y2T3]
Recorded metric: pKd
Result: below the threshold
//
Binder: DLDEEEDTHL [PODXL, O00592]
Recorded metric: pKd
Result: below the threshold
//
Binder: KLVIKTETTV [RASSF6, Q6ZTQ3]
Recorded metric: pKd
Result: 3.49
//
Binder: SHSSKGETAV [FZD7, O75084]
Recorded metric: pKd
Result: below the threshold
//
Binder: FVETQHQTQV [FAT3, Q8TDW7]
Recorded metric: pKd
Result: below the threshold
//
Binder: PPRQRSETQV [HPV82-E6, Q9IR59]
Recorded metric: pKd
Result: below the threshold

In the following, a different binder is considered.
Query: I am curious: what pKd value has been reported for GRLLGLETNV [ARHGEF26, Q96DR7] ?
Reply: below the threshold
